- SYSTEM_TESTED: HLA-A*02:06
- TEST_SUMMARY: IEDB peptide-MHC binding, purified MHC/competitive/radioactivity; filed as Kd, often an IC50 or EC50 that approximates it; bounds were set here for any values at or beyond the usual limits of such assays
- TEST_PARAMETERS: source organism: Dengue virus 2 Jamaica/1409/1983
VALUE_KIND: Kd (nM)
Your answer is read as nM, so omit the unit and give the number.

Kd in this record for AAAWYLWEV : 3.38

Kd in this record for LQMEDKAWLV : 2.72

Kd in this record for MTDDIGMGV : 7.05

Kd in this record for LVISGVFPV : 1.65
